B1: glmS ribozyme (parent)
chain: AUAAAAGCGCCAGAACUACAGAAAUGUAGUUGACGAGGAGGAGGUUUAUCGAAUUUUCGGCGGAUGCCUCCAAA

Variants of: B1
experiment.summary: self-cleavage kobs at 2500 uM GlcN6P; higher = faster cleavage; RNA array
protocol.conditions: with glucosamine-6-phosphate
Fewer inactive variants are shown than the library holds.
# Lookup of reported self-cleavage kobs at 2500 uM GlcN6P keyed by entry

Known results for variants:
[
  {
    "monomer.sequence": "AUAAAAGCGCCAGAACUACAGAAAUGUAGUUGACGAGGAGGAGCUUUAUCGAAUUUUCGGCGGAUGCCUGCAAA",
    "measured.property": "self-cleavage kobs at 2500 uM GlcN6P",
    "readout.value": "< 1e-05 s⁻¹"
  },
  {
    "monomer.sequence": "AUAAAAGCGUCAGCUCUACAGAAAUGUAGUUGACGAGGAGAAGGUUUAUCGAAUUUUCGGCGGAUGCCUCCAAA",
    "measured.property": "self-cleavage kobs at 2500 uM GlcN6P",
    "readout.value": "< 1e-05 s⁻¹"
  },
  {
    "monomer.sequence": "AUAAAAGUCCGAGCACUACAGAAAUGUAGUUGACGAGGAGGAGGGUUAUGGAAUUUUCGGCGGAUGCCUCGAAA",
    "measured.property": "self-cleavage kobs at 2500 uM GlcN6P",
    "readout.value": "< 1e-05 s⁻¹"
  },
  {
    "monomer.sequence": "AUAAAAGCGCCAAAACUACAGAAAUGUAGUUGACGAGGAGGAGGUUUAUCGAAUUUUAGGCGGAUGCCUCCAAA",
    "measured.property": "self-cleavage kobs at 2500 uM GlcN6P",
    "readout.value": "0.000307 s⁻¹"
  },
  {
    "monomer.sequence": "AUAAAAGCGCCAGAACUACAGAAAUGUAGUAGACGAGGAGGAGGUUUAUCGAAUCUUCGGCGCAUGGCUCCAAA",
    "measured.property": "self-cleavage kobs at 2500 uM GlcN6P",
    "readout.value": "< 1e-05 s⁻¹"
  },
  {
    "monomer.sequence": "AUAAAAGCGCCAGAACUACAGAAAUGUAUUUGAUGAGGAGGAGGUUUAUGGAAUUUUCGGCGGAUGCCUUCAAA",
    "measured.property": "self-cleavage kobs at 2500 uM GlcN6P",
    "readout.value": "8.93e-05 s⁻¹"
  }
]

What value of self-cleavage kobs at 2500 uM GlcN6P has been recorded for this entry: AUAAAGGCGCCAGAACUACAGAAAUGUAGUUGACGAGGAGGAGGAUUAUCGAAUUUUCGGCGGAUGCCUCCAAA
0.000454 s⁻¹

What do we get for AUAAAAGCGCCAGAUCUACAGAAAUGUAGUUGACGAGGAGGAGGUUUAGCGAAUUUUCGGCGGAUGCCUCCAAA ?
5.99e-05 s⁻¹
